Cited source: patent US20230391876A1

Property: pKd; scope: individual binders
- ASSAY TARGET: T1, shFcRn (soluble human FcRn) (human, UniProt P55899 24-297; P61769 21-119)
- T1 construct: extracellular domain; Printed only as 'soluble human FcRn'; also called hFcRn (immobilized on a chip)
- T1 sequence (P55899 24-297 limits assumed, chain 1 of 2): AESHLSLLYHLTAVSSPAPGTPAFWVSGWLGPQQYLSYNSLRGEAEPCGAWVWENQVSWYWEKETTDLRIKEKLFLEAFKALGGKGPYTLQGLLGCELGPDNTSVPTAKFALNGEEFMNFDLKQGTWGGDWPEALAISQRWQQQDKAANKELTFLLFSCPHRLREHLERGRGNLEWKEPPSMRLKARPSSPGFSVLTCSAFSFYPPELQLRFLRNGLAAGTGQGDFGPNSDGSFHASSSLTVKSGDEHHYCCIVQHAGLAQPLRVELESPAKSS
- T1 sequence (P61769 21-119 limits assumed, chain 2 of 2): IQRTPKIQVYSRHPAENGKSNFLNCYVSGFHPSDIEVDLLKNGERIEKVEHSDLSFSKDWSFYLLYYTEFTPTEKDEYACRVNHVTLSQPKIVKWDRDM
- ASSAY: SPR, shFcRn immobilized on chip, antibody as analyte, pH 6.0;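 further: kinetics fitted with a 1:1 Langmuir model, association 200 s and dissociation 600 s, samples diluted in PBST, double-referenced signals, values averaged across three shFcRn-coated cells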
pKd: −log10 of the molar value.

BINDER: HL161AN variant No. 5 (LC:N25S, HC:Q82E) (antibody, human IgG1, V domains shown, Variable domains only) VL: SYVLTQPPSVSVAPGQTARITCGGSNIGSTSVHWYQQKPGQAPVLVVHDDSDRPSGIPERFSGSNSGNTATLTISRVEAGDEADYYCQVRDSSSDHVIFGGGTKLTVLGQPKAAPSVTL VH: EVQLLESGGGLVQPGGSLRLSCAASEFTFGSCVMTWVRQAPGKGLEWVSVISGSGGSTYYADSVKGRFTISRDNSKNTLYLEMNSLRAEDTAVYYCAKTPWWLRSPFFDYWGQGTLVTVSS
pKd: 9.64
//
BINDER: HL161AN variant No. 12 (LC:N25Q, HC:C32S) (antibody, V domains shown, also called HL161ANQ; #12 (HL161ANQ)) VL: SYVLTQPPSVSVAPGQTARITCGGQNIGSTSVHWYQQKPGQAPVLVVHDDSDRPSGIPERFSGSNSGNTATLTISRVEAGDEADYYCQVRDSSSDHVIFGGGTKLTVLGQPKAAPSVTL VH: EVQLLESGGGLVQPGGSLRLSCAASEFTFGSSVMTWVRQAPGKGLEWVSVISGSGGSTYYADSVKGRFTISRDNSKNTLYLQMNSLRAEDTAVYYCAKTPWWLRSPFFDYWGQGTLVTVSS
pKd: 9.74
